Cited source: patent US20120016019A1

assay-summary: in vitro
Type: cell-based
conditions-used: human, viability (%) calculated from the cell counts

# smiles-repr, viability at 4 d, 2.2e-07 M / %
rows = [
    ("CC(=O)O[C@H]1C(=O)[C@@]2(C)[C@H]([C@H](OC(=O)c3ccccc3)[C@]3(O)C[C@H](OC(=O)[C@H](O)[C@@H](NC(=O)c4ccccc4)c4ccccc4)C(C)=C1C3(C)C)[C@]1(OC(C)=O)CO[C@@H]1C[C@@H]2O", 43),
]

* * *

assay-summary: in vitro
Format: cell-based
conditions-used: human, viability (%) calculated from the cell counts
parameter-measured: viability at 24 h, 2.2e-07 M (%)

# molecule, value
measured = [
    ("CC(=O)O[C@H]1C(=O)[C@@]2(C)[C@H]([C@H](OC(=O)c3ccccc3)[C@]3(O)C[C@H](OC(=O)[C@H](O)[C@@H](NC(=O)c4ccccc4)c4ccccc4)C(C)=C1C3(C)C)[C@]1(OC(C)=O)CO[C@@H]1C[C@@H]2O [Taxol]", 71),
]

* * *

assay-summary: in vitro
Type: cell-based
conditions-used: human, viability (%), Mean value

# smiles-repr, units-text, viability at 4 d, 2.2e-07 M
data = [
    ("CC(=O)O[C@H]1C(=O)[C@@]2(C)[C@H]([C@H](OC(=O)c3ccccc3)[C@]3(O)C[C@H](OC(=O)[C@H](O)[C@@H](NC(=O)c4ccccc4)c4ccccc4)C(C)=C1C3(C)C)[C@]1(OC(C)=O)CO[C@@H]1C[C@@H]2O", "%", 38),
]

* * *

assay-summary: in vitro
Type: cell-based
conditions-used: human, viability (%), Mean value

# smiles-repr, viability at 24 h, 2.2e-07 M (%)
data = [
    ("CC(=O)O[C@H]1C(=O)[C@@]2(C)[C@H]([C@H](OC(=O)c3ccccc3)[C@]3(O)C[C@H](OC(=O)[C@H](O)[C@@H](NC(=O)c4ccccc4)c4ccccc4)C(C)=C1C3(C)C)[C@]1(OC(C)=O)CO[C@@H]1C[C@@H]2O", 80),
]
